Quick reference: protein stability index of the listed items.
B1: TRIM39 (parent)
chain: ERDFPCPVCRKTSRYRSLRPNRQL

# Variants of: B1
# EXPERIMENTAL DETAILS: protein stability index of a GFP-peptide fusion (GPS, HEK-293T) (PSI 1-6); higher = more stable;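 also: lentivirally expressed fusions sorted by FACS into six bins by GFP to DsRed ratio, PSI derived from sequencing read proportions per bin multiplied by bin number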
# MEASUREMENT PARAMETERS: c terminus: a fixed tail appended
QUANTITY NAME: protein stability index

VARIANT IDENTIFIER: S17H
QUANTITY NAME: protein stability index
RESULT: 1.89

VARIANT IDENTIFIER: L24A
QUANTITY NAME: protein stability index
RESULT: 1.81

VARIANT IDENTIFIER: D3A
QUANTITY NAME: protein stability index
RESULT: 2.2

VARIANT IDENTIFIER: P7Q
QUANTITY NAME: protein stability index
RESULT: 1.96

VARIANT IDENTIFIER: V8E
QUANTITY NAME: protein stability index
RESULT: 1.72

VARIANT IDENTIFIER: R2I
QUANTITY NAME: protein stability index
RESULT: 2.06

VARIANT IDENTIFIER: Q23P
QUANTITY NAME: protein stability index
RESULT: 1.47

VARIANT IDENTIFIER: V8A
QUANTITY NAME: protein stability index
RESULT: 2.89

VARIANT IDENTIFIER: R10K
QUANTITY NAME: protein stability index
RESULT: 2.14

VARIANT IDENTIFIER: N21M
QUANTITY NAME: protein stability index
RESULT: 2.74

VARIANT IDENTIFIER: R22H
QUANTITY NAME: protein stability index
RESULT: 1.56

VARIANT IDENTIFIER: P5N
QUANTITY NAME: protein stability index
RESULT: 1.84

VARIANT IDENTIFIER: V8Q
QUANTITY NAME: protein stability index
RESULT: 2.35

VARIANT IDENTIFIER: N21V
QUANTITY NAME: protein stability index
RESULT: 1.9

VARIANT IDENTIFIER: N21E
QUANTITY NAME: protein stability index
RESULT: 1.71

VARIANT IDENTIFIER: L18W
QUANTITY NAME: protein stability index
RESULT: 2.26

VARIANT IDENTIFIER: S13K
QUANTITY NAME: protein stability index
RESULT: 1.77

VARIANT IDENTIFIER: R14K
QUANTITY NAME: protein stability index
RESULT: 1.9

VARIANT IDENTIFIER: R16Q
QUANTITY NAME: protein stability index
RESULT: 1.91

VARIANT IDENTIFIER: P5D
QUANTITY NAME: protein stability index
RESULT: 2.49

VARIANT IDENTIFIER: E1I
QUANTITY NAME: protein stability index
RESULT: 2.19

VARIANT IDENTIFIER: Q23M
QUANTITY NAME: protein stability index
RESULT: 2.27

VARIANT IDENTIFIER: T12L
QUANTITY NAME: protein stability index
RESULT: 2.13

VARIANT IDENTIFIER: P20S
QUANTITY NAME: protein stability index
RESULT: 1.76

VARIANT IDENTIFIER: R10T
QUANTITY NAME: protein stability index
RESULT: 2.16

VARIANT IDENTIFIER: R19H
QUANTITY NAME: protein stability index
RESULT: 2.08

VARIANT IDENTIFIER: R10E
QUANTITY NAME: protein stability index
RESULT: 1.91

VARIANT IDENTIFIER: Q23I
QUANTITY NAME: protein stability index
RESULT: 1.68

VARIANT IDENTIFIER: R19N
QUANTITY NAME: protein stability index
RESULT: 1.78

VARIANT IDENTIFIER: V8M
QUANTITY NAME: protein stability index
RESULT: 2.31

VARIANT IDENTIFIER: L24V
QUANTITY NAME: protein stability index
RESULT: 2.19

VARIANT IDENTIFIER: L24I
QUANTITY NAME: protein stability index
RESULT: 1.85

VARIANT IDENTIFIER: K11Q
QUANTITY NAME: protein stability index
RESULT: 2.4

VARIANT IDENTIFIER: R14Y
QUANTITY NAME: protein stability index
RESULT: 2.42

VARIANT IDENTIFIER: C6G
QUANTITY NAME: protein stability index
RESULT: 3.97

VARIANT IDENTIFIER: R2E
QUANTITY NAME: protein stability index
RESULT: 2.06

VARIANT IDENTIFIER: V8S
QUANTITY NAME: protein stability index
RESULT: 3.84

VARIANT IDENTIFIER: R22A
QUANTITY NAME: protein stability index
RESULT: 3.44

VARIANT IDENTIFIER: L18R
QUANTITY NAME: protein stability index
RESULT: 2.87

VARIANT IDENTIFIER: R16Y
QUANTITY NAME: protein stability index
RESULT: 1.74

VARIANT IDENTIFIER: S13H
QUANTITY NAME: protein stability index
RESULT: 2.82

VARIANT IDENTIFIER: C6W
QUANTITY NAME: protein stability index
RESULT: 2.01

VARIANT IDENTIFIER: N21Y
QUANTITY NAME: protein stability index
RESULT: 2.52

VARIANT IDENTIFIER: D3N
QUANTITY NAME: protein stability index
RESULT: 2.5

VARIANT IDENTIFIER: S17C
QUANTITY NAME: protein stability index
RESULT: 1.71

VARIANT IDENTIFIER: R19W
QUANTITY NAME: protein stability index
RESULT: 2.1

VARIANT IDENTIFIER: P20H
QUANTITY NAME: protein stability index
RESULT: 1.87

VARIANT IDENTIFIER: S17W
QUANTITY NAME: protein stability index
RESULT: 2.31

VARIANT IDENTIFIER: E1A
QUANTITY NAME: protein stability index
RESULT: 2.16

VARIANT IDENTIFIER: L18T
QUANTITY NAME: protein stability index
RESULT: 3.13

VARIANT IDENTIFIER: V8P
QUANTITY NAME: protein stability index
RESULT: 3.91

VARIANT IDENTIFIER: R10Q
QUANTITY NAME: protein stability index
RESULT: 2.08

VARIANT IDENTIFIER: P20I
QUANTITY NAME: protein stability index
RESULT: 1.6

VARIANT IDENTIFIER: N21I
QUANTITY NAME: protein stability index
RESULT: 1.85

VARIANT IDENTIFIER: S13M
QUANTITY NAME: protein stability index
RESULT: 2.61

VARIANT IDENTIFIER: L24H
QUANTITY NAME: protein stability index
RESULT: 2.82

VARIANT IDENTIFIER: C9S
QUANTITY NAME: protein stability index
RESULT: 3.77

VARIANT IDENTIFIER: R14L
QUANTITY NAME: protein stability index
RESULT: 2.09

VARIANT IDENTIFIER: L24S
QUANTITY NAME: protein stability index
RESULT: 3.32

VARIANT IDENTIFIER: L24W
QUANTITY NAME: protein stability index
RESULT: 1.36

VARIANT IDENTIFIER: C6K
QUANTITY NAME: protein stability index
RESULT: 3.13

VARIANT IDENTIFIER: P20V
QUANTITY NAME: protein stability index
RESULT: 2.07

Ref: the supplement of paper PMC10567573
